Target: HTRA2, O43464
Sequence (O43464 355-458): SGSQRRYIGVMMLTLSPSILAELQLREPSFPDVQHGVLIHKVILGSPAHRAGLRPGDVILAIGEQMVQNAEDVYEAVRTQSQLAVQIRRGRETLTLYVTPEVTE
Experiment: holdup assay
Parameters: key: below the threshold = too weak to quantify, mostly under pKd 3.1 to 4
Settings: plain residues with an end cap or a label only (N-terminal biotin on a linker: ado-ado)
Quantity: pKd

// worked examples, pKd included
DLLGGGSDSI [TNRC6B, Q9UPQ9] | below the threshold
PSVYSRSQYV [CLDN8, P56748] | 4.46
SAGADSETHC [SLCO1B1, Q9Y6L6] | below the threshold
RDYTQSSSSL [GRM5, P41594] | below the threshold
SQDPKKPSRV [CBY2, Q8NA61] | below the threshold

What value of pKd has been reported for the following binder? KEKASTETEC [TRPM1, Q7Z4N2]
below the threshold

What value of pKd has been reported for the following binder? SKQFDKNAYV [CLDN10, P78369]
below the threshold

What value of pKd has been reported for the following binder? THREVKFTSL [CD46, P15529]
below the threshold

What value of pKd has been reported for the following binder? QRYPGNQTTC [CCL24, O00175]
below the threshold

What value of pKd has been reported for the following binder? DYSNLRETDI [ADRA1D, P25100]
below the threshold

What value of pKd has been reported for the following binder? DAAHHDESNC [FMNL3, Q8IVF7]
below the threshold

What value of pKd has been reported for the following binder? QKNKDREYYV [NRXN3, Q9HDB5]
4.02
